- Assayed target: h5-HT7R (Homo sapiens (Human))
- Sequence (P34969 1-432): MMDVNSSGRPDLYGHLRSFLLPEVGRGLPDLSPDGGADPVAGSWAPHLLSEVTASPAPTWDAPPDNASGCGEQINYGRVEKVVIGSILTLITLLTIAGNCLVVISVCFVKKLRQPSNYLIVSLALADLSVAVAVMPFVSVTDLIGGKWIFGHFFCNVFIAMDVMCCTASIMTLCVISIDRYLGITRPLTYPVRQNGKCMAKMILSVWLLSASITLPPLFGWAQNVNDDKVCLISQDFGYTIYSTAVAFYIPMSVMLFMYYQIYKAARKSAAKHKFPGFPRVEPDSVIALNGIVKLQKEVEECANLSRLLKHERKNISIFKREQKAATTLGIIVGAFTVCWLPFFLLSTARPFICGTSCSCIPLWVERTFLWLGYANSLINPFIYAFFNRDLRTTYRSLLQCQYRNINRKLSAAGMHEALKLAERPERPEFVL
- Test description: cAMP accumulation (LANCE cAMP detection kit) in HEK-293 cells stably expressing h5-HT7R
- Type: cell-based
- Test context: 10 nM of 5-CT, one hour; read-out: IC50, decrease of the 5-CT induced cAMP accumulation (antagonist)
- Description: (B) HEK-293 cells stably expressing h5-HT7R were stimulated with 10 nM of 5-CT and increasing concentrations of products for one hour. After cell lysis, cAMP production was quantified by a LANCE cAMP detection kit (Perkin Elmer). […] The EC50 and IC50 for each drug was determined using GraphPad Prism software. cAMP accumulation was measured with a LANCE™ cAMP detection kit (Perkin-Elmer Life Sciences, Boston, MA, USA). […] Concentration/response curves were analyzed using Prism 4 software. […]
Reported property: IC50 (nM)

| Item smiles | Assayed target | Test result |
| --- | --- | --- |
| O=c1[nH]c2ccccc2n1CN1CCN(c2ccc(F)cc2)CC1 | h5-HT7R (Homo sapiens (Human)) | 5 |
